Every entry's value here was drawn from patent US10065941B2.

pIC50 overview
testedSystem: UniProt P56373
testMethodNotes: Evaluation of human P2X3 receptor inhibitory activity (Test Example 1)
measurementSetup: C6BU-1 cell transfected with human P2X3 receptor gene, FLIPR 384
Please report pIC50 as the negative decimal logarithm of the molar concentration, giving only the number.

# annotated cases, reported pIC50 shown
entrySmiles	pIC50
COC(=O)CCn1c(=O)[nH]/c(=N\c2ccc(Oc3cccc(F)n3)cc2)n(Cc2ccc(CF)cc2)c1=O	8.22
Cc1ccc(Cn2c(=O)n(CC(C)(C)C(=O)O)c(=O)[nH]/c2=N\c2ccc(Oc3ccc(F)cn3)cc2)cc1	8.05
C[C@@H](Cn1c(=O)[nH]/c(=N\c2ccc(Oc3ccccn3)cc2)n(Cc2ccc(Cl)cc2)c1=O)C(=O)O	8.40
COC(=O)C(C)(C)Cn1c(=O)[nH]/c(=N\c2ccc(Oc3ccccn3)cc2)n(Cc2ccc(C)cc2)c1=O	8.40
Cc1ccc(Cn2c(=O)n(C[C@H](C)C(=O)O)c(=O)[nH]/c2=N\c2ccc(Oc3ccc(CF)cn3)cc2)cc1	8.10
COC(=O)[C@@H](C)Cn1c(=O)[nH]/c(=N\c2ccc(Oc3cc(C(F)(F)F)ccn3)cc2)n(Cc2ccc(Cl)cc2)c1=O	6.95
C[C@@H](Cn1c(=O)[nH]/c(=N\c2ccc(Oc3ccccn3)cc2)n(CC2CCC3(CC2)CC3)c1=O)C(=O)O	8.10
Cc1ccc(Cn2c(=O)n(C[C@H](C)C(=O)O)c(=O)[nH]/c2=N\c2ccc(Oc3cccc(Cl)n3)cc2)cc1	8.22

Query: What measured pIC50 goes with `C[C@@H](C(=O)O)[C@H](C)n1c(=O)[nH]/c(=N\c2ccc(Oc3cc(F)nc(F)c3)cc2)n(Cc2ccc(Cl)cc2)c1=O` ?
Reply: 8.22

Query: How about `CCOC(=O)C1(Cn2c(=O)[nH]/c(=N\c3ccc(Oc4ccccn4)cc3)n(Cc3ccc(Cl)cc3)c2=O)CC1` ?
Reply: 8.30

Query: How about `O=c1[nH]/c(=N\c2ccc(Oc3ccc(F)cn3)cc2)n(Cc2ccc(Cl)cc2)c(=O)n1[C@H]1C[C@H](C(=O)O)C1` ?
Reply: 8.15

Query: How about `COC(=O)[C@@H](C)Cn1c(=O)[nH]/c(=N\c2ccc(Oc3ncccc3F)cc2)n(Cc2ccc(CF)cc2)c1=O` ?
Reply: 7.92

Query: How about `COc1nccc(Oc2ccc(/N=c3\[nH]c(=O)n([C@@H](C)[C@@H](C)C(=O)O)c(=O)n3Cc3ccc(Cl)cc3)cc2)n1` ?
Reply: 8.00

Query: How about `Cc1cnc(Oc2ccc(/N=c3\[nH]c(=O)n([C@@H](C)[C@@H](C)C(=O)O)c(=O)n3Cc3ccc(Cl)cc3)cc2)s1` ?
Reply: 8.15

Query: How about `C[C@@H](Cn1c(=O)[nH]/c(=N\c2ccc(Oc3ccc(F)nn3)cc2)n(Cc2ccc(Cl)cc2)c1=O)C(=O)O` ?
Reply: 7.96

Query: How about `CCOC(=O)[C@H]1C[C@@H](n2c(=O)[nH]/c(=N\c3ccc(Oc4ccc(F)cn4)cc3)n(Cc3ccc(C)cc3)c2=O)C1` ?
Reply: 8.22

Query: How about `COC(=O)[C@H](C)[C@H](C)n1c(=O)[nH]/c(=N\c2ccc(Oc3cc(C#N)ccn3)cc2)n(Cc2ccc(Cl)cc2)c1=O` ?
Reply: 7.68

Query: How about `C[C@@H](Cn1c(=O)[nH]/c(=N\c2ccc(Oc3ncccc3C#N)cc2)n(Cc2ccc(Cl)cc2)c1=O)C(=O)O` ?
Reply: 7.66

Query: How about `Cc1ccc(Cn2c(=O)n(C[C@H](C)C(=O)O)c(=O)[nH]/c2=N\c2ccc(Oc3ccnc(F)c3)cc2)cc1` ?
Reply: 8.15

Query: How about `Cc1ccc(Cn2c(=O)n([C@H](C)CC(=O)O)c(=O)[nH]/c2=N\c2ccc(Oc3ccc(F)cn3)cc2)cc1` ?
Reply: 7.96

Query: How about `COC(=O)[C@@H](C)Cn1c(=O)[nH]/c(=N\c2ccc(Oc3cccc(CI)n3)cc2)n(Cc2ccc(C)cc2)c1=O` ?
Reply: 8.00

Query: How about `C[C@@H](C(=O)O)[C@H](C)n1c(=O)[nH]/c(=N\c2ccc(Oc3cccc(Cl)n3)cc2)n(Cc2ccc(Cl)cc2)c1=O` ?
Reply: 8.10

Query: How about `COC(=O)[C@@H](C)Cn1c(=O)[nH]/c(=N\c2ccc(Oc3cc(Cl)ccn3)cc2)n(Cc2ccc(Cl)cc2)c1=O` ?
Reply: 7.62

Query: How about `C[C@@H](Cn1c(=O)[nH]/c(=N\c2ccc(Oc3cc(Cl)ncn3)cc2)n(Cc2ccc(Cl)cc2)c1=O)C(=O)O` ?
Reply: 8.05

Query: How about `O=C(Cn1c(=O)[nH]/c(=N\c2ccc(Oc3ccccn3)cc2)n(Cc2ccc(Cl)cc2)c1=O)NCC(F)(F)F` ?
Reply: 8.40

Query: How about `COC(=O)C(C)(C)Cn1c(=O)[nH]/c(=N\c2ccc(N3CCCCC3)c(C)c2)n(Cc2ccc(Cl)cc2)c1=O` ?
Reply: 6.92

====

testedSystem: human P2X3 receptor (Homo sapiens (Human))
Sequence (P56373 whole entry): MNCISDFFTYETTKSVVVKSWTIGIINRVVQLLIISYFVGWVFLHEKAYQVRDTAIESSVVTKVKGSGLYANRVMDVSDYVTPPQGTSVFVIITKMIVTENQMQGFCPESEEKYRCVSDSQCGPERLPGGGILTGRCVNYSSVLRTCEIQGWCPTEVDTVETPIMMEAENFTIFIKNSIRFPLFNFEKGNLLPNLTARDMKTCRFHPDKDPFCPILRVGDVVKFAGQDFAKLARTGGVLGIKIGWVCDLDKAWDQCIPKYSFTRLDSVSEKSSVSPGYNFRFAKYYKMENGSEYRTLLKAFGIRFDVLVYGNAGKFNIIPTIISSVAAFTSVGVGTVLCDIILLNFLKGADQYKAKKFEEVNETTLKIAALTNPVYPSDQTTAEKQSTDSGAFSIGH
testMethodNotes: Evaluation of human P2X3 receptor inhibitory activity (Test Example 1)
measurementSetup: C6BU-1 cell transfected with human P2X3 receptor gene, FLIPR 384
Text: […]
IC50 overview
Give the number; nM is assumed, so skip it.

# annotated cases, reported IC50 shown
entrySmiles	IC50 (nM)
COC(=O)C(C)(C)Cn1c(=O)[nH]/c(=N\c2ccc(Oc3ccc(Cl)cn3)cc2)n(Cc2ccc(Cl)cc2)c1=O	14
COC(=O)[C@H](C)[C@H](C)n1c(=O)[nH]/c(=N\c2ccc(Oc3ncc(C)s3)cc2)n(Cc2ccc(C)cc2)c1=O	12
CCOC(=O)CCCn1c(=O)[nH]/c(=N\c2ccc(Oc3ccc(F)cn3)cc2)n(Cc2ccc(C)cc2)c1=O	6
COC(=O)[C@H](C)[C@H](C)n1c(=O)[nH]/c(=N\c2ccc(Oc3cccc(F)n3)cc2)n(Cc2ccc(C)cc2)c1=O	5
C[C@@H](Cn1c(=O)[nH]/c(=N\c2ccc(Oc3ccc(F)cn3)cc2)n(Cc2ccc(C(F)F)cc2)c1=O)C(=O)O	19

Attention now shifts to the item below.
Query: What measured IC50 goes with `CCn1c(=O)[nH]/c(=N\c2ccc(Oc3ccc(Cl)nc3C(=O)O)cc2)n(Cc2ccc(Cl)cc2)c1=O` ?
Reply: 304

====

IC50 overview
testedSystem: human P2X3 receptor (Homo sapiens (Human))
testMethodNotes: Evaluation of human P2X3 receptor inhibitory activity (Test Example 1)
measurementSetup: C6BU-1 cell transfected with human P2X3 receptor gene, FLIPR 384
Give the number; nM is assumed, so skip it.

# annotated cases, reported IC50 shown
entrySmiles	quantitativeResult
COC(=O)C(C)(C)Cn1c(=O)[nH]/c(=N\c2ccc(Oc3ncccc3OC)cc2)n(Cc2ccc(Cl)cc2)c1=O	9
COC(=O)CCn1c(=O)[nH]/c(=N\c2ccc(Oc3ccccn3)cc2)n(Cc2ccc(C)cc2)c1=O	3
COC(=O)C(C)(C)Cn1c(=O)[nH]/c(=N\c2ccc(Oc3ncccc3F)cc2)n(Cc2ccc(Cl)cc2)c1=O	9

Query: What measured IC50 goes with `C[C@@H](Cn1c(=O)[nH]/c(=N\c2ccc(Oc3cncc(Cl)c3)cc2)n(Cc2ccc(Cl)cc2)c1=O)C(=O)O` ?
Reply: 5

Query: How about `COC(=O)C(C)(C)Cn1c(=O)[nH]/c(=N\c2ccc(Oc3ccc(C(F)(F)F)nn3)cc2)n(Cc2ccc(Cl)cc2)c1=O` ?
Reply: 7

Query: How about `COC(=O)C(C)(C)Cn1c(=O)[nH]/c(=N\c2ccc(Oc3ccc(OC(F)F)cn3)cc2)n(Cc2ccc(Cl)cc2)c1=O` ?
Reply: 25

====

testMethodNotes: Metabolism stability test, pooled human hepatic microsomes (Test Example 11)
Format: in vitro ADME
measurementSetup: human liver microsomes, 30 minutes, compound concentration 0.5 μmol/L
Metabolism Stability (remaining rate) overview
Give the number; % is assumed, so skip it.

entrySmiles	Metabolism Stability (remaining rate), %
C[C@@H](C(=O)O)[C@H](C)n1c(=O)[nH]/c(=N\c2ccc(Oc3ccc(F)cn3)c(F)c2)n(Cc2ccc(Cl)cc2)c1=O	99
O=c1[nH]/c(=N\c2ccc(Oc3ccc(F)cn3)cc2)n(Cc2ccc(Cl)cc2)c(=O)n1[C@H]1C[C@H](C(=O)O)C1	96
O=c1[nH]/c(=N\c2ccc(Oc3ncccc3F)cc2)n(Cc2ccc(Cl)cc2)c(=O)n1[C@H]1C[C@H](C(=O)O)C1	97

Query: What measured Metabolism Stability (remaining rate) goes with `C[C@@H](Cn1c(=O)[nH]/c(=N\c2ccc(Oc3cccc(F)n3)cc2)n(Cc2ccc(F)cc2F)c1=O)C(=O)O` ?
Reply: 100

Query: How about `C[C@@H](Cn1c(=O)[nH]/c(=N\c2ccc(Oc3cc(F)ccn3)cc2)n(Cc2ccc(Cl)cc2)c1=O)C(=O)O` ?
Reply: 103

Query: How about `Cc1ccc(Cn2c(=O)n(C[C@H](C)C(=O)O)c(=O)[nH]/c2=N\c2ccc(Oc3cccc(F)n3)cc2)cc1` ?
Reply: 91
